Target: H^+ K^+ ATPase (Sus scrofa, UniProt P19156)
Construct: Lyophilised gastric vesicles were prepared from pig fundic mucosa
Sequence (P19156 2-1034 limits assumed): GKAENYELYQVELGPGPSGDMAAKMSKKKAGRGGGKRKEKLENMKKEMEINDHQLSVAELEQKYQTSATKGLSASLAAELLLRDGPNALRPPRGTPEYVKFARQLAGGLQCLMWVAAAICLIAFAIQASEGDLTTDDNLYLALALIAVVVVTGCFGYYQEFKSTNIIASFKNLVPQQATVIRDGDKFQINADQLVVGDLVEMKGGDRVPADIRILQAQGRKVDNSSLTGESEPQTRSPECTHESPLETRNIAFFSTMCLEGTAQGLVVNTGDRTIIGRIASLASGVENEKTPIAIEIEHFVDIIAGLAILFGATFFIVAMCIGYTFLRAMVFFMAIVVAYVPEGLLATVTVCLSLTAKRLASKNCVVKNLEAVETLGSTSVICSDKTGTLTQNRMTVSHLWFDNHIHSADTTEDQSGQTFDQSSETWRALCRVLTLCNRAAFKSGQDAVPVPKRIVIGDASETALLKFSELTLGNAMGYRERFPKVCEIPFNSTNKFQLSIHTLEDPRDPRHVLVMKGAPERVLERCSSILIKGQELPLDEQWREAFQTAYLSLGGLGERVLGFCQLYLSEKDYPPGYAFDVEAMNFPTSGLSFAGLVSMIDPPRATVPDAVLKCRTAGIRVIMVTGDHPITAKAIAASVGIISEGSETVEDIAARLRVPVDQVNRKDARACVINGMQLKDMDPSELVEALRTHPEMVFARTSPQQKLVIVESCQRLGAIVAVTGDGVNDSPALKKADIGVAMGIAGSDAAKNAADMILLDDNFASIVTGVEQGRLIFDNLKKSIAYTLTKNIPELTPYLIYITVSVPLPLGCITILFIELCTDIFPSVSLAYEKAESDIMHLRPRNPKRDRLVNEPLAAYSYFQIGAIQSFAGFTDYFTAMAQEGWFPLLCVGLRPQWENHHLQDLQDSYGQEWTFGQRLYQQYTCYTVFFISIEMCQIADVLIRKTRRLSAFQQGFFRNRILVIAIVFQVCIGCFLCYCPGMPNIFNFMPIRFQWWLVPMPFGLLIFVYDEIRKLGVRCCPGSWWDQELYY
Sequence (P18434 whole entry partner): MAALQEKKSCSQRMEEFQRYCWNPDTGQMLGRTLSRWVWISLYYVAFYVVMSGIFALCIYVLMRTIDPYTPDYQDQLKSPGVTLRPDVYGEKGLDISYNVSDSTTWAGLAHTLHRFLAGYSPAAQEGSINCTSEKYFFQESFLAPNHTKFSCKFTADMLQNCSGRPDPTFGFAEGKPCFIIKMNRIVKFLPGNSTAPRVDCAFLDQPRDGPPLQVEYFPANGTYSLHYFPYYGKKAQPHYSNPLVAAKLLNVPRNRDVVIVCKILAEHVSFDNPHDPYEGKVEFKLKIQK
Test: K^+ -stimulated ATPase activity in lyophilised gastric vesicles (H^+ K^+ ATPase Activity)
Conditions: inhibition of K^+ -stimulated ATPase activity, lyophilised gastric vesicles from pig fundic mucosa, 37° C., pH 7.0, 1 mM KCl, 2 mM Na2 ATP, 30 minutes
Experimental: The effects of a single high concentration ([…]) of a compound of structure (I) on K^+ -stimulated ATPase activity in lyophilised gastric vesicles was determined. Preferred compounds of structure (I) were also tested over a range of concentrations to determine IC50 values. […] K^+ -stimulated ATPAse activity was determined at 37° C. in the presence of the following: 10 mM Pipes/Tris buffer pH 7.0, 2 mM MgSO4, 1 mM KCl, 2 mM Na2 ATP and […] lyophilised gastric vesicles. […]
The compounds listed here are annotated with their IC50.
Kindly report the value followed by its unit.

# MOL, VAL
measured = [
    ("CCOC(=O)c1cnc2c(OC)cccc2c1Nc1ccc(O)cc1C", "80 nM"),
    ("CCCC(=O)c1cnc2ccc(O)cc2c1Nc1ccc(O)cc1C", "70 nM"),
    ("CCCC(=O)c1cnc2c(OC)cc(O)cc2c1Nc1ccc(O)cc1C", "1300 nM"),
]

Switching to the query record.
Reported IC50, compound COc1cccc2c(Nc3ccc(O)cc3C)c(C(=O)C(C)C)cnc12 : ____ 160 nM
